# Tested on: CP315
# Assay text: qHTS profiling for inhibitors of Plasmodium falciparum proliferation (AID 504749); note: nearly all actives have a fitted effect of over 60% in size
# Test conditions: P. falciparum in erythrocytes, SYBR Green DNA, 72 h; series mostly up to 28.7 µM
Records with an inconclusive call do not appear. Activity calls are given as the source filed them. Calls come from the whole dose curve; as a rule, active = well fitted inhibition curve with a large enough effect; inconclusive = small, poorly fitted or top-dose-only effect; inactive = flat fitted curve, though single readings scatter.
Outcomes: yes (1) for active, no (0) for inactive

| Compound | Class label |
| --- | --- |
| CCC(C)C(N)C(=O)O (stereo unspecified) | no (0) |
| CCC(=O)OC1C(N(C)C)CC(C)O[C@H]1O[C@H]1[C@H](C)[C@@H](O[C@H]2CC(OC)[C@@H](O)C(C)O2)[C@H](C)C(=O)O[C@@H](CC)[C@](C)(O)[C@@H](O)[C@H](C)C(=O)[C@@H](C)C[C@]1(C)O (stereo partly specified) | no (0) |
| C[C@H]1OC(OC2C(O)[C@@H](O)C(OC3C(O)[C@@H](O)C(O)O[C@@H]3CO)O[C@@H]2CO)[C@H](O)C(O)C1N[C@H]1C=C(CO)[C@@H](O)[C@H](O)C1O (stereo partly specified) | no (0) |
| CC(=O)N[C@H]1[C@H](O[C@@H]2c3ccc(c(Cl)c3)Oc3cc4cc(c3O[C@@H]3O[C@H](CO)[C@@H](O)[C@H](O)C3C)Oc3ccc(cc3Cl)C[C@H]3NC(=O)[C@@H](N)c5ccc(O)c(c5)Oc5cc(O)cc(c5)[C@H](NC3=O)C(=O)N[C@H]4C(=O)N[C@H]3C(=O)N[C@@H]2C(=O)N[C@@H](C(=O)O)c2cc(O)cc(O[C@H]4O[C@H](CO)[C@@H](O)C(O)[C@@H]4O)c2-c2cc3ccc2O)O[C@H](CO)[C@@H](O)[C@@H]1O (stereo partly specified) | no (0) |
| Oc1cc2cc(CCN3CCN(c4nsc5ccccc45)CC3)c(Cl)cc2[nH]1 | no (0) |
| OC[C@@H](O)C(O[C@@H]1O[C@@H](CO)[C@H](O)[C@H](O)[C@H]1O)[C@H](O)[C@@H](O)CO (stereo partly specified) | no (0) |
| Nc1ncn(C2C[C@H](O)[C@@H](CO)O2)c(=O)n1 (stereo partly specified) | no (0) |
| CN1[C@H]2CC(OC(=O)[C@H](CO)c3ccccc3)C[C@H]1[C@H]1O[C@H]12 (stereo partly specified) | no (0) |
| CO/N=C(/C(=O)N[C@@H]1C(=O)N2C(C(=O)O)=C(CSc3nc(C)c(CC(=O)O)s3)CS[C@H]12)c1csc(N)n1 | no (0) |
| C=C1CCC(O)C/C1=C/C=C1\CCC[C@]2(C)[C@@H]([C@H](C)/C=C/[C@H](C)C(C)C)CC[C@@H]12 (stereo partly specified) | no (0) |
| OCC1OC(O)C(O)C(O)C1O (stereo unspecified) | no (0) |
| CC(c1ncncc1F)[C@](O)(Cn1cncn1)c1ccc(F)cc1F (stereo partly specified) | no (0) |
| CCN(CC)C(=O)[C@@]1(c2ccccc2)C[C@@H]1CN | no (0) |
| CC[C@H]1OC(=O)[C@H](C)C(=O)[C@H](C)[C@@H](OC2O[C@H](C)C[C@H](N(C)C)[C@@H]2O)[C@@](C)(OC)C[C@@H](C)C(=O)[C@@H](C)C2N(CCCCn3cnc(-c4cccnc4)c3)C(=O)O[C@@]21C (stereo partly specified) | no (0) |
| CC12C=CC(=O)C=C1[C@@H](F)CC1C2C(O)CC2(C)C1CC[C@]2(O)C(=O)CO (stereo partly specified) | no (0) |
| Nc1nc(/C(=C/CC(=O)O)C(=O)NC2C(=O)N3C(C(=O)O)=CCSC23)cs1 (stereo unspecified) | no (0) |
| COc1cc([C@H]2c3cc4c(cc3[C@@H](O[C@H]3O[C@H]5CO[C@@H](C)O[C@H]5[C@@H](O)[C@@H]3O)[C@@H]3COC(=O)[C@H]23)OCO4)cc(OC)c1O | no (0) |
| CC(C)(C)C(=O)OCC(=O)C1CCC2C3CCC4=CC(=O)CCC4(C)C3CCC12C (stereo unspecified) | no (0) |
| CC1=C(/C=C/C(C)=C\C=C\C(C)=C\C=C\C=C(C)\C=C\C=C(C)\C=C\C2=C(C)C[C@@H](O)CC2(C)C)C(C)(C)C[C@H](O)C1 | no (0) |
| C[C@]12CC[C@@H]3c4ccc(O)cc4CC[C@H]3[C@@H]1C[C@H](O)C2O (stereo partly specified) | no (0) |
| CN[C@H](C)CCC=C(C)C | yes (1) |
